- Test system: MS2 coat protein
- Method: apparent KD of MS2 coat protein, switch ON state; designed switch direction (-1 OFF switch, 1 ON switch): 1; higher = weaker reporter binding
- Condition Description: FMN input: 0 or 200 uM; Eterna round: R93 (includes R88 designs)

Residues	Quantity Unit	apparent KD of MS2 coat protein
AAAACACAUGAGGAUCACCCAUGUAGAAAUACGGGAGGAUAUGCAAAAACGAAAGACAAAGUAGAAGGCCUAAAAG [saturn 9]	nM	26.2
GAGGACAUAGUACAGGAUAUAUGAAUAGUUACAUGAGGAUCACCCAUGUGCAUUUAUAUGCGAACAUAGAAGGGUGGUAGUUAUC [SameState2 Malc#30]	nM	136
AAGGCACAUGAGGAUCACCCAUGUUAGCCGCGACGAGGAUAUGGGAACGCGUCAGCGGAAUUAGAAGGUGUGGUGA [Qusoquan]	nM	35.6
CGAAGACAUGAGGAUCACCCAUGUGGGAUUAUGGGAGGAUAUACAAAGACGAGAGUCAGAGUAGAAGGCCUAGGAA [salish99-ss1-124(!)]	nM	23.3
AACAAUCUAUCUGAGGAUAUCAAGUCAAAGACAUGAGGAUCACCCAUGUGCAGGAAAACUGCAUUUGAGAAGGCAGAUAGAUUGA [SS2: 1108]	nM	10.3
GAAAAACAUGAGGAUCACCCAUGUAAGAUAAACACAGGAUAUGCGAAAAUAAACAAAUAAGCAGAAGGGUGAAAAG [Mat - Same State 1 - Tesla mod - 77]	nM	18.5
AUAAAACAUGAGGAUCACCCAUGUAAAAAUAUGGAAGGAUAUACGUAGUAAAAUAAAUACGUAGAAGGUCCAAAAA [SS! MT 21]	nM	15
UAGAGACAUGAGGAUCACCCAUGUAGGAUUAUGGGAGGAUAUACAAAGACGAGAGUCAGAGUAGAAGGCCUAGGAU [salish99-ss1-134(!)]	nM	27.4
CGAAGACAUGAGGAUCACCCAUGUGGGAAUAUGGGAGGAUAUACAAAGACGAGAGUCAGAGUAGAAGGCCUAGGAC [salish99-ss1-108]	nM	26.5
GAUAAACAUGAGGAUCACCCAUGUAGAUAUAUGGGAGGAUAUACAAAGACGAUAGUCAUAGUAGAAGGCCUAAUAG [77%, Mat - Mod of Eli - With 5 more U's]	nM	30
AAGAGACAUGAGGAUCACCCAUGUAGGAUUAUGGGAGGAUAUACAAAGACGAGAGUCAGAGUAGAAGGCCUAGGAC [salish99-ss1-132(!)]	nM	19.3
CAUAGACAUGAGGAUCACCCAUGUAGAAUUAUGGGAGGAUAUACAAAGACGAGAGUCAGAGUAGAAGGCCUAGGAG [salish99-ss1-163]	nM	24.4
AAGACACAUGAGGAUCACCCAUGUCAAGAGAGACGAGGAUAUCUGAAUUAAUUAAAUUAAGGAGAAGGCGUGAAAA [Same State of Confusion2]	nM	23.1
AUAAAGAAAACACAGGAUAUCCAAAAGAAAACAUGAGGAUCACCCAUGUAAAGAAAAUAAAAAUGGGAGAAGGGUGAAAGAAAUA [Mat - Same State 2 - JL mod - D40]	nM	34.8
AAAAGACAUGAGGAUCACCCAUGUAAAAACGUAGGAGGAUAUGUCGUGAAAAAAGACUUGGCAGAAGGCCUGUGUC [SS1 - 39]	nM	30
AAAGAAAAACUAGAGGAUAUUUGAAUGGUAACAUGAGGAUCACCCAUGUGAAGAAAGGAACAUGAGGAGAAGGCUAGAAGAAAAA [JL Nando mod 16]	nM	17.5
AAGAAACAUGAGGAUCACCCAUGUGAGAUAAACACAGGAUAUGCGAAAAUAAAUAAAUAAGCAGAAGGGUGAAGAA [Mat - Same State 1 - Tesla mod - 69]	nM	30.2
AACUAACAUGAGGAUCACCCAUGUAUUCAAACAUGAGGAUAUAUAACACAUCAUCAACAGAUAGAAGGCAUAAAUA [JR_SS001_Sub1204]	nM	93
AAUAUAUUAAGUGAGGAUAUCGAGGAAAAAACAUGAGGAUCACCCAUGUGGGAAACAUGGUCGGGUGAGAAGGCACUUAAUAUAU [Samwise Clockwise 25 - Jieux - Same State 2]	nM	125
CAGGACCUAGGAUAGGAUAUAUGAAUAAUUACAUGAGGAUCACCCAUGUCCAUUUAUAUGGGAACAUAGAAGGGUUGUGGUUAUG [Mat - Same state - Malcolm Mod - D133]	nM	179
AGGAGACAUGAGGAUCACCCAUGUAGAAGGAUGGGAGGAUAUACAAAGACGAGAGUCAGAGUAGAAGGCCUAGGAA [salish99-ss1-182(!)]	nM	19.7
AAAGAAUGAAGGCAGGAUAUGUGAAAAAAAACAUGAGGAUCACCCAUGUAAUAAAUGGGUACAAAACAGAAGGGCCAAGAAACAA [SS 2 Tesla 3]	nM	380
GUAUGCAUGAGGUAGGAUAUCCAAAACAAAACAUGAGGAUCACCCAUGUAAACAAACAACAAAUGGGAGAAGGACCACAUGUAUAC [Ex6 sub 5]	nM	13.1
ACUAGGAAGAGAGAGGAUAUCCAAAGGAAAACAUGAGGAUCACCCAUGUAAAAGGUAGGAAAUUGGGAGAAGGCUCAAGAGAGAG [salish99-ss2-085]	nM	22.9
